// provenance: ChEMBL document CHEMBL1201862

system: A549; assay: NCI tumour cell line growth inhibition, 48 h
Active and inactive are the calls of the source. Rule as the data show it: active = GI50 up to about 1.1 µM and inactive = higher.
Collected GI50 values appear next to each entry.

Solved entries (count: 4):
{"columns": ["Molecule", "GI50"],
 "data": [
  ["Nn1c(S)nnc1C12CC3CC(CC(C3)C1)C2", "> 100 µM (inactive)"],
  ["O=C1OC2C(O)COC2(O)C1(O)Cc1c[nH]c2ccccc12 (stereo not given)", "> 100 µM (inactive)"],
  ["Cc1cc(O)c2c(=O)c3c(O)cc(O)c4c5c(O)cc(O)c6c(=O)c7c(O)cc(C)c8c1c2c(c34)c(c78)c65", "52.6 µM (inactive)"],
  ["COc1ccc(Nc2nc3ccc(C(F)(F)F)cc3nc2-c2ccccc2)cc1OC", "39.5 µM (inactive)"]
]}

Let us move to another entry and its GI50.
State the recorded GI50 for this entry: "CC(=O)Nc1ccccc1S(=O)(=O)c1ccccc1"
> 100 µM (inactive)

* * *

test system: A549; test: NCI tumour cell line growth inhibition, 48 h
Calls of active or inactive are those of the source. No stated cut-off is given here; in the data, active = GI50 up to about 1.1 µM and inactive = higher.
Endpoint label: GI50

{"columns": ["Molecule", "System tested", "Endpoint label", "Result"],
 "data": [
  ["O=Cc1cn(CCCCCCCCCCCCn2cc(C=O)c3ccccc32)c2ccccc12", "A549", "GI50", "56 µM (inactive)"]
]}

Which GI50 value belongs to C=C1C(=O)C2=CC1CCC(=O)C1(C)CCC(OC(C)=O)C(C)(C)C1CC2O (stereo unspecified) ?
4.38 µM (inactive)

Please give the measured GI50 for this molecule: "Cc1ccc(-c2nnc(SCC(=O)O)[nH]2)cc1"
> 100 µM (inactive)

Bench note: what GI50 did "O=C1CCN/C(=N\C(=O)C(F)(F)F)N1CCc1c[nH]c2ccccc12" show?
> 100 µM (inactive)

* * *

system: SK-OV-3; experiment: NCI tumour cell line growth inhibition, 48 h
The source made the active and inactive calls. Rule as the data show it: active = GI50 up to about 1.1 µM and inactive = higher.
Hi! Could you answer with just one of these? 1 (yes) (active), 0 (no) (inactive)

{"columns": ["Compound", "Category label"],
 "data": [
  ["CN(C)CCNC(=O)c1cccc2[nH]c(-c3cccnc3)nc12", "0 (no)"]
]}

Which outcome did this test record for the compound "CCCCSc1nsc(N(C(=O)c2ccccc2)C(=O)c2ccccc2)n1" ?
0 (no)

Hey, what did the test say about "Cn1c(=S)[nH]c(N)c(Cc2ccccc2)c1=O" ?
0 (no)

Give the logged outcome of this assay for the following compound: O=C1OC2C(O)COC2(O)C1(O)Cc1c[nH]c2ccccc12 (configuration not stated)
0 (no)

Status in this test for "Brc1ccc2c(c1)[C@H]1CCc3c([nH]c4ccccc34)[C@H]1N2" ?
0 (no)

Assay outcome for "O=C(/C=C/c1c(O)ccc2ccccc12)c1ccccc1Cl" : what was it?
0 (no)

* * *

tested on: ACHN; assay: NCI tumour cell line growth inhibition, 48 h
Activity calls are given as the source filed them. Rule as the data show it: active = GI50 up to about 1.1 µM and inactive = higher. Where a SMILES comes first, the peptide text is derived from it. [ ]: non-standard residue; d: D form. The star is where a group is joined. ξ: configuration not given here. Propanoyl(3-(4-MeO-Ph)) = COc1ccc(CCC(=O)*)cc1; Thr(3ξ) = CC(O)[C@H](N)C(=O)O; dNMeL = CN[C@H](CC(C)C)C(=O)O; OBn = c1ccc(CO*)cc1; ξLac = CC(O)C(=O)O
Endpoint label: GI50

Please review the following examples before continuing.
{"columns": ["Molecule", "GI50"],
 "data": [
  ["CN(C)c1ccc(/C=C(/C(=O)O)c2csc(-c3nc(/C(=C\\c4ccc(N(C)C)cc4)C(=O)O)cs3)n2)cc1", "> 100 µM (inactive)"],
  ["CCOC(=O)NC(=O)c1cn(CCN2CCN(C(=O)CNC(=O)CNC(=O)Cn3cc(C(=O)NC(=O)OCC)c(=O)[nH]c3=O)CC2)c(=O)[nH]c1=O", "> 100 µM (inactive)"],
  ["CCOC(=O)NC(=O)c1cn(C(CC)COC(=O)NCCCCCCNC(=O)OCC(CC)n2cc(C(=O)NC(=O)OCC)c(=O)[nH]c2=O)c(=O)[nH]c1=O (configuration not stated)", "> 100 µM (inactive)"],
  ["O=C(/C=C/c1c(O)ccc2ccccc12)c1ccccc1Cl", "34.3 µM (inactive)"],
  ["CCOC(=O)C(=O)CC(=O)C(Br)C(Br)c1ccc(Cl)cc1 (configuration not stated)", "36 µM (inactive)"]
]}

I am curious: what GI50 value has been reported for COc1ccc(CCC(=O)OC(C)[C@H](NC(=O)[C@@H](CC(C)C)N(C)C(=O)[C@@H]2CCCN2C(=O)C(C)O)C(=O)OCc2ccccc2)cc1 (some centres not stated) (H-[ξLac]P[dNMeL][Thr(3ξ)](Propanoyl(3-(4-MeO-Ph)))-OBn) ?
41.6 µM (inactive)

What value of GI50 has been recorded for this entry: CC(=O)OCC1OC(n2c3c(c(-c4cccc5ccccc45)c(C#N)c2=S)CCCC3)C(OC(C)=O)C(OC(C)=O)C1OC(C)=O (configuration not stated)
> 100 µM (inactive)

* * *

system: T47D; assay: NCI tumour cell line growth inhibition, 48 h
Calls of active or inactive are those of the source. Cut-off read from the data, not from the text of the source: active = GI50 up to about 1.1 µM and inactive = higher.
Classes to choose from: TRUE for active, FALSE for inactive

{"columns": ["Compound", "Category label"],
 "data": [
  ["O=C(O)C(/C=C/c1ccccc1)c1ccccc1 (stereo not given)", "FALSE"],
  ["CC1(C)C/C=C\\CCC(O)C(O)CCC(C)(C)C1=O (stereo not given)", "FALSE"],
  ["C#CCn1c(=O)c(C)cn(/C(=C/C(=O)OCC)C(=O)OCC)c1=O", "FALSE"],
  ["c1csc(-c2cc(-c3ccsc3)c(-c3cccs3)s2)c1", "FALSE"],
  ["C/C(=N\\NC1=NCCN1)c1cn(C2=NCCN2)nc1C", "FALSE"]
]}

Could you please tell me the result logged for "CC(=O)Nc1ccc(Sc2nnc(NC(C)=O)s2)cc1" in this assay?
FALSE

Hey, what did the test say about "O=C1CCN/C(=N\C(=O)C(F)(F)F)N1CCc1c[nH]c2ccccc12" ?
FALSE

Recorded test call requested for "O=S(=O)(c1cnccc1N1CCN(CCO)CC1)N1CCCC1"
FALSE

Assay outcome for "Brc1ccc2c(c1)[C@H]1CCc3c([nH]c4ccccc34)[C@H]1N2" : what was it?
FALSE

Which result was noted for this compound in the test: "Nc1n[nH]c(Nc2ccc(Cl)cc2)c1P(=O)(c1ccccc1)c1ccccc1"
FALSE

* * *

tested on: KM12; assay: NCI tumour cell line growth inhibition, 48 h
Activity calls are given as the source filed them. No stated cut-off is given here; in the data, active = GI50 up to about 1.1 µM and inactive = higher.
Answer with one of the outcomes given here: active, inactive

Solved cases (6 shown):
{"columns": ["Compound", "System tested", "Category label"],
 "data": [
  ["CC(N)Cc1ccc(Cl)cc1 (stereo not given)", "KM12", "inactive"],
  ["COc1ccc2c(c1)[n+]([O-])c(C(=O)C/C(=N/NC(=O)c1ccccc1O)C(=O)Nc1ccc(Cl)c(C(F)(F)F)c1)c(C)[n+]2[O-]", "KM12", "inactive"],
  ["COc1ccc(/C=C/C(=O)c2cccc(C(=O)/C=C/c3ccc(OC)c(OC)c3)n2)cc1OC", "KM12", "inactive"],
  ["Cc1cnc(Cl)nc1C(C#N)c1nc2ccccc2n1C (stereo not given)", "KM12", "inactive"],
  ["O=C(O)c1ccccc1/C=N\\N=C1NCCCCN1", "KM12", "inactive"],
  ["CC12CC(=O)C3C(C(=O)C1)C32C (stereo not given)", "KM12", "active"]
]}

Each compound tested received a call. Report the one for "COC(=O)[C@@H](NC(=O)c1ccc(CNC(=O)/C(C)=C/c2ccccc2)cc1)C(C)C" .
inactive

For OCC1OC2c3ccccc3COC2C1OCc1ccccc1 (stereo not given) , what call appears in the results of this test?
inactive

Kindly provide the recorded test outcome for the following compound: CC(=O)OCC1OC(n2c3c(c(-c4cccc5ccccc45)c(C#N)c2=S)CCCC3)C(OC(C)=O)C(OC(C)=O)C1OC(C)=O (stereo not given)
inactive

Which outcome was assigned to "O=C(O)c1cc(/N=N/c2ccc([As](=O)(O)O)cc2)ccc1O" in this test?
inactive

* * *

tested on: MDA-MB-231; assay: NCI tumour cell line growth inhibition, 48 h
Calls of active or inactive are those of the source. Rule as the data show it: active = GI50 up to about 1.1 µM and inactive = higher.
Bench note: report the call from active, inactive

{"columns": ["Molecule", "Category label"],
 "data": [
  ["Clc1ccc(OCc2nnc(CCCCCCCCc3nnc(COc4ccc(Cl)cc4)n3Nc3ccccc3)n2Nc2ccccc2)cc1", "inactive"]
]}

Please indicate how the test categorized CCc1ccc(/C=C/C(=O)C2CN(CC)CCC2(O)/C=C/c2ccc(CC)cc2)cc1 (stereo unspecified) .
inactive

# fetch the recorded call for "COc1cc2c(cc1OCCCN1C(=O)c3cccc4cccc(c34)C1=O)N=C[C@@H]1CCCN1C2=O" here
inactive

Assay outcome for "O=C(O)COCC(=O)N(CCOCCN(Cc1ccccc1)C(=O)COCC(=O)O)Cc1ccccc1" : what was it?
inactive

I'd appreciate the recorded outcome for "O=C(/C=C/c1ccccc1)CCC1C(=O)c2ccccc2C1=O" from this test.
inactive

What classification did "COc1cc2c(c(N)c1OC)C(=O)/C(=C/c1cc(C)c(O)c(C)c1)C2" end up with in this test?
active

Which result was noted for this molecule in the test: CN(C)CC1COC2Cc3ccccc3C1O2 (stereo unspecified)
inactive

Give the logged outcome of this assay for the following molecule: COc1cc(C2c3cc4c(cc3[C@@H](Nc3ccccc3)C3COC[C@H]23)OCO4)cc(OC)c1O (stereo partly specified)
inactive

State the result this test recorded for O=C(O)C(/C=C/c1ccccc1)c1ccccc1 (stereo unspecified) .
inactive

In this assay, the call recorded for "CCOC(=O)c1nc2ccccc2nc1Oc1ccc(C(=O)OC)cc1" was what?
inactive

Hi, sorry to bother you, what did the test record for COC(=O)C12CCC(C)(C)CC1C1=CCC3C4(C)CC(O)C(O)C(C)(C(=O)OC)C4CCC3(C)C1(CO)CC2 (stereo unspecified) ?
inactive

How was "O=C(NC(C(F)(F)F)(C(F)(F)F)P(=O)(Cc1ccccc1)Cc1ccccc1)C(C(F)(F)F)C(F)(F)F" classified in this test?
inactive

I would be grateful if you could indicate the recorded call for "O=C(NNC(=O)c1cc2ccccc2[nH]1)c1cc2ccccc2[nH]1" .
inactive

Please let me know the test result on file for CCCCCC(/C=N/N)C(O)(C(F)(F)F)C(F)(F)F (stereo unspecified) .
inactive

Kindly provide the recorded test outcome for the following molecule: "COc1ccc2cc(CN3CCC(C4CCNCC4)CC3)ccc2c1"
inactive

Outcome logged for "O=C(/C=C/c1cccc2ccccc12)c1ccccc1" in this assay:
inactive

For "COc1cc(/C=C2\N=C(c3ccccc3)N(c3nc4ccc(Sc5ccccc5)cc4[nH]3)C2=O)ccc1O" , what call appears in the results of this test?
inactive

What was the test verdict on "O=C(O)CCCN1CCCCC1" ?
inactive

Please state the recorded outcome for this molecule: "COC(=O)/C=C\n1ncc(=O)[nH]c1=O"
inactive

Would you mind telling me which call this test gave N#Cc1cccc(N2C(=O)C3C4C=CC(C3C2=O)C2C(=O)N(c3cccc(C#N)c3)C(=O)C42)c1 (stereo unspecified) ?
inactive

Lab log entry: "C/C(=N\NC1=NCCN1)c1cn(C2=NCCN2)nc1C" — outcome as called in the assay?
inactive
